- Tested on: hOCT2 WT cells
- PROTOCOL_NOTES: Cytoviability (MTT) assay, hOCT2 WT cells
- Type: cell-based, human
- CONDITION_DETAILS: read-out: EC50 (concentration giving 50% of the toxic effect), MTT assay, 10 min incubation, then 48 hours in fresh medium
MEASURE: EC50 (µM)
Give the value in µM but do not write µM after it.

Query :: EC50 lookup needed for N.N.[Cl][Pt][Cl] [Cisplatin, cisplatin] , thanks.
Result :: 13

----------
IC50 values by entry
- STUDY_TARGET: UniProt:O15244
- Sequence (O15244 whole entry, change not shown): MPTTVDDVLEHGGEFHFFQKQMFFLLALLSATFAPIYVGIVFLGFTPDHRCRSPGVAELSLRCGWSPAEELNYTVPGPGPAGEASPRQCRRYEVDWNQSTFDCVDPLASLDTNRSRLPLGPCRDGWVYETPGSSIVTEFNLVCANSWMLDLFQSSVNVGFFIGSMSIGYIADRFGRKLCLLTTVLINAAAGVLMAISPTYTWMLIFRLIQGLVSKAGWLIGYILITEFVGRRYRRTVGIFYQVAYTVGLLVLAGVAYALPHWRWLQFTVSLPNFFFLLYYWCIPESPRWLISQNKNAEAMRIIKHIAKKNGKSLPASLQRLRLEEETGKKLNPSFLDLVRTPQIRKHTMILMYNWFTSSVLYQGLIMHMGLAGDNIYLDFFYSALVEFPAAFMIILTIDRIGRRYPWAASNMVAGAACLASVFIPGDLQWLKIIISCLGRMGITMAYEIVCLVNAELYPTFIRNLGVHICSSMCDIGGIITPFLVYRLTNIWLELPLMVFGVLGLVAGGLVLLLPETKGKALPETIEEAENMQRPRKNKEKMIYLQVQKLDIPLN
- PROTOCOL_NOTES: Inhibition of ASP+ uptake by competitors, hOCT2 Ala270Ser
- CONDITION_DETAILS: 1 µM ASP^+; HEK293 hOCT2 Ala270Ser cells; 37 °C, pH 7.4; read-out: hOCT2 Ala270Ser IC50 (apparent affinity, inhibition of ASP^+ uptake)
Give the value in µM but do not write µM after it.

Query :: Reported IC50 for UniProt:O15244, given CN1CC(=O)NC1=N ?
Result :: 9800

Query :: Reported IC50 for UniProt:O15244, given N.N.[Cl][Pt][Cl] [Cisplatin, cisplatin] ?
Result :: 9
